Reference source for all entries: patent US5696143A

Molecular target: Human COX II (Homo sapiens)
Construct: A 2.0 kb fragment containing the coding region of either human or murine COX-I or human or murine COX-II
Sequence (P35354 18-604): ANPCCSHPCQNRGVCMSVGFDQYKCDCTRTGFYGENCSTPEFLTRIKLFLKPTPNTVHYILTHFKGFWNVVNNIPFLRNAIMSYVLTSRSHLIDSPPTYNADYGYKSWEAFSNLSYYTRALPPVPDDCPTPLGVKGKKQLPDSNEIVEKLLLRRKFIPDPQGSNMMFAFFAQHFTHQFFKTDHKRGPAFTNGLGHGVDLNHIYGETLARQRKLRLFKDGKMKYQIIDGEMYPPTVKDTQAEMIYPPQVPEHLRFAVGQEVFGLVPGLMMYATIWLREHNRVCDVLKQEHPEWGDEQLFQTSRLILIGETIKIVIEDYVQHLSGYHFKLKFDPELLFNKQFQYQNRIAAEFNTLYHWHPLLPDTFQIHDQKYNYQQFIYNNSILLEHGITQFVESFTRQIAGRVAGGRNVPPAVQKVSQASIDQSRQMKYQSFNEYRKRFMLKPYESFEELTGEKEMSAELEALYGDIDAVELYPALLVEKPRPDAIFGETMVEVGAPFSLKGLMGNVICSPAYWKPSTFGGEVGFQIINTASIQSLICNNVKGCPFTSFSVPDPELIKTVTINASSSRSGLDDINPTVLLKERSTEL
Experiment: COX II activity in vitro (PGE2 formed, ELISA; recombinant enzyme, baculovirus/SF9 insect cell membranes)
Conditions: arachidonic acid 10 μM; 10-20 min pre-incubation; pH 8.0; read-out: Human COX II ID50
assayReadout: IC50

// below: answered compounds
[
  {
    "smilesNotation": "COc1ccc2c(ccc3c(C(F)(F)F)nn(-c4ccc(S(N)(=O)=O)cc4)c32)c1",
    "systemUnderTest": "Human COX II (Homo sapiens)",
    "IC50": "< 0.1 µM"
  },
  {
    "smilesNotation": "COc1ccc2c(ccc3cnn(-c4ccc(S(N)(=O)=O)cc4)c32)c1",
    "systemUnderTest": "Human COX II (Homo sapiens)",
    "IC50": "> 100 µM"
  },
  {
    "smilesNotation": "COc1ccc2c(ccc3c(C(F)F)nn(-c4ccc(S(N)(=O)=O)cc4)c32)c1",
    "systemUnderTest": "Human COX II (Homo sapiens)",
    "IC50": "< 0.1 µM"
  }
]

Hi there! I need IC50 for each item below, if you can.
1. COc1ccc2c(ccc3c(C(F)F)nn(-c4ccc(S(N)(=O)=O)cc4)c32)c1Cl
2. NS(=O)(=O)c1ccc(-n2nc(C(F)(F)F)c3ccc4ccccc4c32)cc1

*A*
["1 µM", "> 100 µM"]
